- ASSAYED_SYSTEM: HIV protease (Human immunodeficiency virus type 1 group M subtype B, UniProt P04585)
- TEST: biochemical
pKi: −log10 of the molar value.
pKi: recorded values

{"MOLECULE": "CC(C)CN([C@H](CO)CCCCNC(=O)[C@H](Cc1ccccc1-c1ccccc1)NC(=O)N1CCOCC1)S(=O)(=O)c1ccc(N)cc1 [Example 43]", "LIMIT_QUALIFIER": "=", "pKi": 9.22}
{"MOLECULE": "CCCCN[C@@H](Cc1ccc2ccccc2c1)C(=O)NCCCC[C@@H](CO)N(CC(C)C)S(=O)(=O)c1ccc(N)cc1 [Example 68]", "LIMIT_QUALIFIER": "=", "pKi": 8.24}
{"MOLECULE": "CC(C)CN([C@H](CO)CCCCNC(=O)[C@@H](NC(=O)c1ncccc1O)C(c1ccccc1)c1ccccc1)S(=O)(=O)c1ccc(N)cc1 [Example 108]", "LIMIT_QUALIFIER": ">", "pKi": 8.42}

----------
- ASSAYED_SYSTEM: HIV protease (Human immunodeficiency virus type 1 group M subtype B, UniProt P04585)
- TEST: biochemical
Ki: recorded values

{"MOLECULAR_STRING": "CC(C)CN([C@H](CO)CCCCNC(=O)[C@@H](NC(=O)c1ccccc1O)C(c1ccccc1)c1ccccc1)S(=O)(=O)c1ccc(N)cc1", "Ki": "< 3.8 nM"}
{"MOLECULAR_STRING": "CC(C)CN([C@H](CO)CCCCNC(=O)[C@H](Cc1ccc(-c2ccccc2)cc1)NC(=O)OC(C)(C)C)S(=O)(=O)c1ccc(N)cc1", "Ki": "6 nM"}
{"MOLECULAR_STRING": "CC(C)CN([C@H](CO)CCCCNC(=O)[C@@H](NC(=O)c1ccc(O)nc1)C(c1ccccc1)c1ccccc1)S(=O)(=O)c1ccc(N)cc1", "Ki": "< 3.8 nM"}

----------
- ASSAYED_SYSTEM: HIV protease (Human immunodeficiency virus type 1 group M subtype B, UniProt P04585)
- TEST: biochemical
pKi: −log10 of the molar value.
VALUE_KIND: pKi

{"COMPOUND": "COC(=O)N[C@H](C(=O)NCCCC[C@@H](CO)N(CC(C)C)S(=O)(=O)c1ccc(N)c(Cl)c1)C(c1ccccc1)c1ccccc1 [Example 50]", "VALUE_KIND": "pKi", "OBSERVED": 9.11}
{"COMPOUND": "CC(C)CN([C@H](CO)CCCCNC(=O)[C@H](Cc1ccc2ccccc2c1)NC(=O)c1cnc[nH]1)S(=O)(=O)c1ccc(F)c(N)c1 [Example 114]", "VALUE_KIND": "pKi", "OBSERVED": "> 8.42"}
{"COMPOUND": "Cc1ccc(C(=O)N[C@H](C(=O)NCCCC[C@@H](CO)N(CC(C)C)S(=O)(=O)c2ccc(N)cc2)C(c2ccccc2)c2ccccc2)cn1 [Example 112]", "VALUE_KIND": "pKi", "OBSERVED": "> 8.42"}
{"COMPOUND": "CC(C)CN([C@H](CO)CCCCNC(=O)[C@H](Cc1ccc2ccccc2c1)NCc1ccccn1)S(=O)(=O)c1ccc(N)cc1 [Example 70]", "VALUE_KIND": "pKi", "OBSERVED": 8.31}
{"COMPOUND": "COC(=O)N[C@@H](Cc1ccc2ccccc2c1)C(=O)NCCCC[C@@H](CO)N(CC(C)C)S(=O)(=O)c1ccc(F)c(N)c1 [Example 82]", "VALUE_KIND": "pKi", "OBSERVED": "> 8.42"}
{"COMPOUND": "CC(C)CN([C@H](CO)CCCCNC(=O)[C@@H](NC(=O)OCc1ccccn1)C(c1ccccc1)c1ccccc1)S(=O)(=O)c1ccc(N)cc1 [Example 95]", "VALUE_KIND": "pKi", "OBSERVED": "> 8.42"}

Value source: patent US6632816B1
